Each record here notes measured protein stability index.
B1: USP39 (parent)
chain: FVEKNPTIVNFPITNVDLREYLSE

# Variants of: B1
# assay_details: protein stability index of a GFP-peptide fusion (GPS, HEK-293T) (PSI 1-6); higher = more stable;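 also: lentivirally expressed fusions sorted by FACS into six bins by GFP to DsRed ratio, PSI derived from sequencing read proportions per bin multiplied by bin number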
# condition_label: c terminus: a fixed tail appended
Form field (numeric): enter value without unit.

{"variant_annotation": "F11H", "observed_property": "protein stability index", "data_value": 2}
{"variant_annotation": "D17E", "observed_property": "protein stability index", "data_value": 1.95}
{"variant_annotation": "E20I", "observed_property": "protein stability index", "data_value": 2.01}

[in] Return value of protein stability index for input E20Q , no commentary.
[out] 2.08

[in] Return value of protein stability index for input I13E , no commentary.
[out] 2.4

Data origin, for the record: the supplement of paper PMC10567573
